- Test system: MDA-MB-435 breast carcinoma
- protocol.summary: Anchorage Dependent Growth Monolayer Assay (ADGMA), MTS readout
- Format: cell-based
- reported.conditions: Homo sapiens, MDA-MB-435, 72 h, average ± S.D., 3-day exposure, A490
pIC50: −log10 of the molar value.
Everything with pIC50 lower than 7 is class 0; everything else, including exactly 7, is class 1.

INPUT: Does pIC50 meet or surpass 7 for CO[C@@H](C(=O)N[C@H]1CC[C@@H](OC(=O)Cc2ccc(Cl)c(Cl)c2)CNC1=O)[C@H](O)[C@@H](O)[C@H](O)/C=C/C(C)(C)C ?
OUTPUT: class 0

INPUT: Please check the record COc1ccc(CC(=O)O[C@@H]2CC[C@H](NC(=O)[C@H](OC)[C@H](O)[C@@H](O)[C@H](O)/C=C/C(C)(C)C)C(=O)NC2)cc1 and state if its pIC50 is at or above 7.
OUTPUT: class 0

INPUT: Answer whether pIC50 of CCCCCCCCCCOc1ccc(C(=O)O[C@@H]2CC[C@H](NC(=O)[C@H](OC)[C@H](O)[C@@H](O)[C@H](O)/C=C/C(C)(C)C)C(=O)NC2)cc1 is greater than or equal to 7.
OUTPUT: class 1

INPUT: Check if pIC50 >= 7 (inclusive). Item: CO[C@@H](C(=O)N[C@H]1CC[C@@H](OC(=O)/C=C/c2ccccc2)CNC1=O)[C@H](O)[C@@H](O)[C@H](O)/C=C/C(C)(C)C
OUTPUT: class 1

INPUT: Check the entry CO[C@@H](C(=O)N[C@H]1CC[C@@H](OC(=O)Cc2ccccc2)CNC1=O)[C@H](O)[C@@H](O)[C@H](O)/C=C/C(C)(C)C : does pIC50 equal or exceed 7?
OUTPUT: class 0

INPUT: Does the molecule CO[C@@H](C(=O)N[C@H]1CC[C@@H](OC(=O)C2CCCCCC2)CNC1=O)[C@H](O)[C@@H](O)[C@H](O)/C=C/C(C)(C)C have recorded pIC50 that is 7 or more?
OUTPUT: class 1

INPUT: Quick check: does CO[C@@H](C(=O)N[C@H]1CC[C@@H](OC(=O)CCc2ccccc2)CNC1=O)[C@H](O)[C@@H](O)[C@H](O)/C=C/C(C)(C)C have pIC50 greater than or equal to 7?
OUTPUT: class 1

INPUT: Check this molecule for pIC50 at or above 7: CCCCCCCCCCc1ccc(C(=O)O[C@@H]2CC[C@H](NC(=O)[C@H](OC)[C@H](O)[C@@H](O)[C@H](O)/C=C/C(C)(C)C)C(=O)NC2)cc1
OUTPUT: class 1

INPUT: Kindly determine if pIC50 recorded for CO[C@@H](C(=O)N[C@H]1CC[C@@H](OC(=O)CCc2cccnc2)CNC1=O)[C@H](O)[C@@H](O)[C@H](O)/C=C/C(C)(C)C is above or exactly 7.
OUTPUT: class 0
